- Test Target: recombinant human mPGES-1 (Homo sapiens)
- Construct: made in house; host or cells: Rosetta E. coli (microsomal/membrane fraction)
- Sequence (O14684 1-152): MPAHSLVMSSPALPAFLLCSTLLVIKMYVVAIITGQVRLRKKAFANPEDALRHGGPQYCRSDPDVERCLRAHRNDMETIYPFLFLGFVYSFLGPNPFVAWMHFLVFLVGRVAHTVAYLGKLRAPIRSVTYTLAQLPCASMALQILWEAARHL
- Experiment Description: mPGES-1 inhibition test (microsomes, PGH2 substrate, HTRF detection of PGE2)
- Type: biochemical
- Experimental Setup: inhibition of mPGES-1 at 10 μM
- Protocol: Microsomes from Rosetta E. coli bacteria expressing recombinant human mPGES-1 is dissolved in 0.1 M KPi pH 7.4 buffer containing 2.5 mM GSH. 50 μl of the enzyme is subsequently dispensed in a 384-well plate. […] After over night incubation the fluorescence is measured by the use of an appropriate microplate reader. […] The extent of the specific FRET is measured as a ratio of the emission intensity at 665 nm vs. that at 620 nm. […]
I'd appreciate it if you could supply inhibition at 10 µM values for the items below.
Answers are plain numbers, in %.

Reference set, count: 3
O=C(Nc1ccc(Br)cc1)c1ccc2[nH]c(Nc3ccccc3OC(F)(F)F)nc2c1 [Example 106] = 82
O=C(N[C@H]1CC[C@H](C(F)(F)F)CC1)c1cc2nc(Nc3c(Cl)ccc(Cl)c3F)[nH]c2cc1F [Example 597] = 100
Cc1cc(NC(=O)c2ccc3c(c2)nc(Nc2c(Cl)cccc2Cl)n3C)ncc1Cl [Example 202] = 100

Batch request: inhibition at 10 µM for each of the following compounds.
1. COc1cc2c(cc1C(=O)Nc1cc(Cl)c(C)cn1)nc(Nc1c(Cl)cccc1Cl)n2C [Example 634]
2. Cn1c(Nc2c(Cl)cccc2Cl)nc2cc(C(=O)NC3CCC(F)(F)CC3)ccc21 [Example 249]
3. CC1(C)CCC(NC(=O)c2ccc3[nH]c(Nc4c(Cl)cccc4Cl)nc3c2)CC1 [Example 64]
4. Cn1c(Nc2ccc(C(F)(F)F)cc2Cl)nc2cc(C(=O)Nc3ccc(Br)cc3)ccc21 [Example 556]
5. Cc1ccnc(CNC(=O)c2cc3nc(Nc4c(Cl)cccc4Cl)n(C)c3cc2F)c1 [Example 534]

Out:
1. 97
2. 96
3. 97
4. 74
5. 80
